List of IC50 values.
target: Melanin-concentrating hormone receptor 1 (Rattus norvegicus); experiment: Displacement of [125I]-MCH(4 to 19) from rat MCHR1 expressed in CHO cell membranes after 1 hr by liquid scintillation counting
Sequence (P97639 whole entry): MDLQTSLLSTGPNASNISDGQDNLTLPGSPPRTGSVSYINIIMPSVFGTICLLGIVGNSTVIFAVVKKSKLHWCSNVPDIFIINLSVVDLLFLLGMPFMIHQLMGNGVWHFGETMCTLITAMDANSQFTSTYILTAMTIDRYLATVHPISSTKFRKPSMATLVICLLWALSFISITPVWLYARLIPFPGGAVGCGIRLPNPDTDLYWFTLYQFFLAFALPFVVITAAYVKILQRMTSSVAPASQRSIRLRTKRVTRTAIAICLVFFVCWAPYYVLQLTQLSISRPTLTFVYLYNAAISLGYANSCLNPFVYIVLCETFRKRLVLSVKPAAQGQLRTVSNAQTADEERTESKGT
Reply with just the number (in nM).

- compoundString: "Cc1c2cc(-n3ccc(OCc4ccc(F)cc4)cc3=O)ccc2nn1C"
  unitInfo: "nM"
  recordedValue: 76
- compoundString: "Cc1c2cc(-n3ccc(OCc4ccc(Cl)cc4)cc3=O)ccc2nn1C"
  unitInfo: "nM"
  recordedValue: 36
- compoundString: "Cc1c2cc(-n3ccc(OCc4cc(C(F)(F)F)cs4)cc3=O)ccc2nn1C"
  unitInfo: "nM"
  recordedValue: 38
- compoundString: "CCn1nc2ccc(-n3ccc(OCc4ccc(Cl)cc4)cc3=O)cc2c1C"
  unitInfo: "nM"
  recordedValue: 65

Below: the item to evaluate.
Query (molecule): Cc1c2cc(-n3ccc(OCc4csc(C(F)(F)F)c4)cc3=O)ccc2nn1C ; field requested: IC50
70
